# assay-target: Human plasma kallikrein (Homo sapiens (Human), UniProt P03952)
# Sequence (P03952 391-638): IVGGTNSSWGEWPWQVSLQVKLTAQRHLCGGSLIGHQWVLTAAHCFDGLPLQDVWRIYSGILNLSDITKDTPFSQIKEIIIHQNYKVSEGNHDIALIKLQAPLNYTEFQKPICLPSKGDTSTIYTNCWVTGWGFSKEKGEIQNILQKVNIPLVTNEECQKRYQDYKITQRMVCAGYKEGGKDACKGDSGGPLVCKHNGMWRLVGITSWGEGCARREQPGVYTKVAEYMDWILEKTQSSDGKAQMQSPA
# Sequence (P03952 20-390 partner): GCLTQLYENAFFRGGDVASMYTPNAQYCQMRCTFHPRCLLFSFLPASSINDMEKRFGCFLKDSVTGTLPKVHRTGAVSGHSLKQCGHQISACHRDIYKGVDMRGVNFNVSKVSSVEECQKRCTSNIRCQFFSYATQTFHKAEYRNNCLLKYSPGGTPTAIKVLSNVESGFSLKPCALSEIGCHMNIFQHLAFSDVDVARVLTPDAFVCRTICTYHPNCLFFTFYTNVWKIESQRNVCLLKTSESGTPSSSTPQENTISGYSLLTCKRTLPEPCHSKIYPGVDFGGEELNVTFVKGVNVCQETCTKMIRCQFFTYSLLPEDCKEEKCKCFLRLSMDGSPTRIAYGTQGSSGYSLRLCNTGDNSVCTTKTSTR
# test-summary: In vitro plasma kallikrein inhibition assay (chromogenic substrate D-Pro-Phe-Arg-pNa, absorbance at 405 nm, IC50 determination)
# Format: biochemical
# condition-description: read-out: KLKB1 pIC50 (converted)

molecule | value-unit | IC50
Cc1cc(CN)cc(C)c1CNC(=O)c1ccc2c(c1)C1OC2c2ccc(-c3ccc(F)cc3F)cc21 (racemic) | nM | 372
Nc1cc(NC(=O)c2ccc3c(c2)[C@@H]2O[C@H]3c3ccc(-c4ccc(F)cc4F)cc32)ccn1 (single isomer, unassigned) | nM | 100000
N=C(N)c1ccc(CNC(=O)c2ccc3c(c2)[C@@H]2O[C@H]3c3ccc(N4CC5CCC(C4)O5)cc32)cc1 (single isomer, unassigned) | nM | 38.9

----------
Catalogue of KLKB1 pIC50 readings, one per entry.
# assay-target: Human plasma kallikrein (Homo sapiens (Human), UniProt P03952)
# test-summary: In vitro plasma kallikrein inhibition assay (chromogenic substrate D-Pro-Phe-Arg-pNa, absorbance at 405 nm, IC50 determination)
# Format: biochemical

compound | KLKB1 pIC50
CON=C(N)c1cc(F)c(CNC(=O)c2ccc3c(c2)[C@@H]2O[C@H]3c3ccc(-c4ccc(F)cc4F)cc32)c(F)c1 | 6.18
CON=C(N)c1ccc(CNC(=O)c2ccc3c(c2)[C@@H]2O[C@H]3c3ccc(-c4ccc(Cl)s4)cc32)cc1 | 4
CCc1cc2c(cc1-c1ccc(F)cc1F)C1OC2c2ccc(C(=O)NCc3c(C)cc(N)nc3C)cc21 (racemic) | 8.09
Cc1cc(N)nc(C)c1CNC(=O)c1ccc2c(c1)C1OC2c2c(C)cc(-c3ccc(F)cc3)cc21 (racemic) | 6.64
CON=C(N)c1ccc(CNC(=O)c2ccc3c(c2)[C@@H]2O[C@H]3c3ccc(-c4ccc(F)cc4)cc32)cc1 | 4
Cc1cc(N)nc(C)c1CNC(=O)c1ccc2c(c1)C1OC2c2ccc(-c3ccccc3F)cc21 (stereo not shown) | 6.91
NC(=NO)c1ccc(CNC(=O)c2ccc3c(c2)[C@@H]2O[C@H]3c3ccc(-c4ccc(Cl)s4)cc32)cc1 | 4

----------
# reported IC50; entries follow
# assay-target: Human plasma kallikrein (Homo sapiens (Human))
# test-summary: In vitro plasma kallikrein inhibition assay (chromogenic substrate D-Pro-Phe-Arg-pNa, absorbance at 405 nm, IC50 determination)
# Type: biochemical
# condition-description: read-out: KLKB1 pIC50 (converted)

molecule | value-unit | IC50
CCOc1cc(N)nc(C)c1CNC(=O)c1ccc2c(c1)C1OC2c2ccc(-c3c(C)cc(F)cc3F)cc21 (racemic) [Example 151] | nM | 195
Cc1cc(N)nc(C)c1CNC(=O)c1ccc2c(c1)C1OC2c2ccc(-c3ccc(C(F)(F)F)c(F)c3F)cc21 (racemic) [Example 119] | nM | 427
N=C(N)c1ccc(CNC(=O)c2ccc3c(c2)[C@@H]2O[C@H]3c3ccc(-n4cccn4)cc32)cc1 (single isomer, unassigned) [Example 305] | nM | 8.91
Cc1ccc(C#N)c(-c2ccc3c(c2)C2OC3c3ccc(C(=O)NCc4c(C)cc(N)nc4C)cc32)c1 (racemic) [Example 156] | nM | 93.3
Cc1cc(N)nc(C)c1CNC(=O)c1ccc2c(c1)C1OC2c2ccc(C(=O)c3ccccc3)cc21 (racemic) [Example 188] | nM | 10
N=C(N)c1cccc(NC(=O)c2ccc3c(c2)[C@@H]2O[C@H]3c3ccc(-c4ccc(F)cc4F)cc32)c1 (single isomer, unassigned) [Example 258] | nM | 10000
Cc1cc(N)nc(C)c1CNC(=O)c1ccc2c(c1)C1OC2c2ccc(Oc3ccc(F)c(F)c3)cc21 (racemic) [Example 122] | nM | 148
Cc1cc(N)nc(C)c1CNC(=O)c1cc(F)c2c(c1)C1OC2c2c(C)cc(-c3ccc(F)cc3)cc21 (racemic) [Example 397] | nM | 20
Cc1cc(N)nc(C)c1CNC(=O)c1ccc2c(c1)C1OC2c2ccc(-c3c(C)cc(F)cc3F)cc21 (racemic) [Example 141] | nM | 105
COc1ccc(Oc2ccc3c(c2)C2OC3c3ccc(C(=O)NCc4c(C)cc(N)nc4C)cc32)cn1 (racemic) [Example 152] | nM | 1260
Cc1cc(N)nc(C)c1CNC(=O)c1ccc2c(c1)[C@@H]1O[C@H]2c2ccc(-c3ccc(F)c[n+]3[O-])cc21 (single isomer, unassigned) [Example 214] | nM | 83.2
COc1cc(N)nc(C)c1CNC(=O)c1ccc2c(c1)C1OC2c2ccc(Cn3cc(C)cn3)cc21 (racemic) [Example 132] | nM | 2
Cc1cc2c(cc1C)C1OC2c2ccc(C(=O)NCc3ccc(C(=N)N)cc3)cc21 (racemic) [Example 317] | nM | 28.8
